Numbers sourced from patent US20250368649A1.

- Test system: ASPC1 cells
- MEASUREMENT_NOTES: Inhibition of KRas-mediated phosphorylation of ERK (Cisbio HTRF pERK), ASPC1 cells
- Format: cell-based
- MEASUREMENT_CONDITIONS: Homo sapiens, ASPC1, 3 h, AsPC-1 cells; 3 hr compound incubation
Listing: IC50 of selected compounds

>  <COMPOUND>
CCc1c(F)ccc2cc(O)cc(N3CCc4c(nc(OC[C@@]56CCCN5C[C@H](F)C6)nc4N4CCCn5nc(C(=O)N6CC[C@H]7CC[C@@H]6C7)cc5C4)C3)c12

>  <IC50>
13 nM

$$$$
>  <COMPOUND>
CN(C)C(=O)c1cc2n(n1)CCCN(c1nc(OC[C@@]34CCCN3C[C@H](F)C4)nc3c1CCN(c1ccc(F)c4sc(N)c(C#N)c14)C3)C2

>  <IC50>
4290 nM

$$$$
>  <COMPOUND>
C=C1CN2CCCC2(COc2nc3c(c(N4CCCC5(CC(O)C5)C4)n2)CCN(c2cc(O)cc4ccc(F)c(CC)c24)C3)C1 (stereo not drawn)

>  <IC50>
261 nM

$$$$
>  <COMPOUND>
CCc1c(F)ccc2cc(O)cc(N3CCc4c(nc(OC[C@@]56CCCN5C[C@H](F)C6)nc4N4CCCn5ncc(CO)c5C4)C3)c12

>  <IC50>
48 nM

$$$$
>  <COMPOUND>
C[C@@H]1C[C@@H]1c1c(Cl)cc(O)cc1N1CCc2c(nc(OC[C@@]34CCCN3C[C@H](F)C4)nc2N2CCC[C@@](C)(O)C2)C1 (stereo in doubt)

>  <IC50>
247 nM

$$$$
>  <COMPOUND>
C[C@@H]1C[C@@H]1c1c(Cl)cc(O)cc1N1CCc2c(nc(OC[C@@]34CCCN3C[C@H](F)C4)nc2N2CCC[C@]3(C2)NC(=O)NC3=O)C1 (stereo in doubt)

>  <IC50>
70 nM

$$$$
>  <COMPOUND>
C=C1CN2CCCC2(COc2nc3c(c(N4CCCC5(CNS(=O)(=O)N5)C4)n2)CCN(c2cc(O)cc4ccc(F)c(CC)c24)C3)C1 (stereo not drawn)

>  <IC50>
70 nM

$$$$
>  <COMPOUND>
CCc1c(F)ccc2cc(O)cc(N3CCc4c(nc(OC[C@@]56CCCN5C[C@H](F)C6)nc4N4CCCn5nc(C(=O)N(C6CC6)C6CC6)cc5C4)C3)c12

>  <IC50>
11 nM

$$$$
>  <COMPOUND>
C=C1CN2CCCC2(COc2nc3c(c(N4CCCC5(CCO5)C4)n2)CCN(c2cc(O)cc4ccc(F)c(CC)c24)C3)C1 (stereo not drawn)

>  <IC50>
51 nM

$$$$

---

Listing: IC50 of selected compounds
- System: A549 cells
- MEASUREMENT_NOTES: Inhibition of KRas-mediated phosphorylation of ERK (Cisbio HTRF pERK), A549 cells
- Format: cell-based
- MEASUREMENT_CONDITIONS: Homo sapiens, A549, 3 h, 3 hr compound incubation, Cisbio pERK HTRF

>  <COMPOUND>
CCc1c(F)ccc2cc(O)cc(N3CCc4c(nc(OC[C@@]56CCCN5C[C@H](F)C6)nc4N4CCCn5nc6c(c5C4)CCCNC6=O)C3)c12

>  <IC50>
134 nM

$$$$
>  <COMPOUND>
CCc1c(F)ccc2cc(O)cc(N3CCc4c(nc(OC[C@@]56CCCN5C[C@H](F)C6)nc4N4CCCn5nnc(Br)c5C4)C3)c12

>  <IC50>
22 nM

$$$$
>  <COMPOUND>
CCc1c(F)ccc2cc(O)cc(N3CCc4c(nc(OC[C@@]56CCCN5C[C@H](F)C6)nc4N4CCCOCC4)C3)c12

>  <IC50>
24 nM

$$$$
>  <COMPOUND>
CCc1c(F)ccc2cc(O)cc(N3CCc4c(nc(OC[C@@]56CCCN5C[C@H](F)C6)nc4N4CCCn5nc6c(c5C4)CCCN(C)C6=O)C3)c12

>  <IC50>
22 nM

$$$$
>  <COMPOUND>
CCc1c(F)ccc2cc(O)cc(N3CCc4c(nc(OC[C@@]56CCCN5C[C@H](F)C6)nc4N4CCCn5nc(C(=O)N6CCN(C)CC6)cc5C4)C3)c12

>  <IC50>
23 nM

$$$$
>  <COMPOUND>
CCc1c(F)ccc2cc(O)cc(N3CCc4c(nc(OC[C@]56CCCN5[C@H](CNS(=O)(=O)N(C)C)CC6)nc4N4CCCn5nc(C(=O)N(C)C)cc5C4)C3)c12

>  <IC50>
114 nM

$$$$
>  <COMPOUND>
CCc1c(F)ccc2cc(O)cc(N3CCc4c(nc(OC[C@@]56CCCN5C[C@H](F)C6)nc4N4CCCn5nc(C(=O)NC)c(OC)c5C4)C3)c12

>  <IC50>
20 nM

$$$$
>  <COMPOUND>
CCc1c(F)ccc2cc(O)cc(N3CCc4c(nc(OC[C@@]56CCCN5C[C@H](F)C6)nc4N4CCCSCC4)C3)c12

>  <IC50>
63 nM

$$$$
>  <COMPOUND>
CCc1c(F)ccc2cc(O)cc(N3CCc4c(nc(OCC56CCCN5C/C(=C\F)C6)nc4N4CCCn5nc(C(=O)N(C)C)cc5C4)C3)c12 (stereo not drawn)

>  <IC50>
4 nM

$$$$
>  <COMPOUND>
CCc1c(F)ccc2cc(O)cc(N3CCc4c(nc(OC[C@@]56CCCN5C[C@H](F)C6)nc4N4CCCn5nc(C(=O)N(C)C)c(Br)c5C4)C3)c12

>  <IC50>
1 nM

$$$$
>  <COMPOUND>
CCc1c(F)ccc2cccc(N3CCc4c(nc(OC[C@@]56CCCN5C[C@H](F)C6)nc4N4CCCn5nc(C(=O)N(C)C)cc5C4)C3)c12

>  <IC50>
285 nM

$$$$
>  <COMPOUND>
CCc1c(F)ccc2cc(O)cc(N3CCc4c(nc(OC[C@@]56CCCN5C[C@H](F)C6)nc4N4CCCCn5nc(C(=O)N(C)C6CC6)cc5C4)C3)c12

>  <IC50>
29 nM

$$$$

---

- System: ASPC1 cells
- MEASUREMENT_NOTES: Inhibition of KRas-mediated phosphorylation of ERK (Cisbio HTRF pERK), ASPC1 cells
- Type: cell-based
- MEASUREMENT_CONDITIONS: Homo sapiens, ASPC1; single point at 100 nM; AsPC-1 cells; 3 hrs compound incubation

>  <COMPOUND>
CCc1c(F)ccc2cc(O)cc(N3CCc4c(nc(OC[C@@]56CCCN5C[C@H](F)C6)nc4N4CCCn5nc(C(=O)N6C7CCCC6CC7)cc5C4)C3)c12 [Example 341]

>  <ENDPOINT_UNIT>
%

>  <inhibition at 0.1 µM>
95

$$$$
>  <COMPOUND>
CCc1c(F)ccc2cc(O)cc(N3CCc4c(nc(OC[C@@]56CCCN5C[C@H](F)C6)nc4N4CCCn5nc(C(=O)N(C)C)c(Br)c5C4)C3)c12 [Example 387]

>  <ENDPOINT_UNIT>
%

>  <inhibition at 0.1 µM>
99

$$$$
>  <COMPOUND>
CCc1c(F)ccc2cc(O)cc(N3CCc4c(nc(OC[C@@]56CCCN5C[C@H](F)C6)nc4N4CCCn5nc(C(=O)N6CC7CCC6CC7)cc5C4)C3)c12 [Example 339]

>  <ENDPOINT_UNIT>
%

>  <inhibition at 0.1 µM>
97

$$$$
>  <COMPOUND>
CCc1c(F)ccc2cc(O)cc(N3CCc4c(nc(OC[C@@]56CCCN5C[C@H](F)C6)nc4N4CCCCC(COC(C)C(=O)N(C)C)C4)C3)c12 (stereo partly drawn) [Example 252]

>  <ENDPOINT_UNIT>
%

>  <inhibition at 0.1 µM>
-5

$$$$
>  <COMPOUND>
CCc1c(F)ccc2cc(O)cc(N3CCc4c(nc(OC[C@@]56CCCN5C[C@H](F)C6)nc4N4CCCn5nc(CN(C)S(=O)(=O)NC)cc5C4)C3)c12 [Example 237]

>  <ENDPOINT_UNIT>
%

>  <inhibition at 0.1 µM>
10

$$$$
>  <COMPOUND>
Cc1c(F)ccc2cc(O)cc(N3CCc4c(nc(OC[C@@]56CCCN5C[C@H](F)C6)nc4N4CCCC5(CNS(=O)(=O)N5)C4)C3)c12 (stereo partly drawn) [Example 512]

>  <ENDPOINT_UNIT>
%

>  <inhibition at 0.1 µM>
74

$$$$

---

- System: MKN1 cells
- MEASUREMENT_NOTES: Inhibition of KRas-mediated phosphorylation of ERK (Cisbio HTRF pERK), MKN1 cells
- Assay type: cell-based
- MEASUREMENT_CONDITIONS: Homo sapiens, MKN-1, 3 hour compound incubation, Cisbio pERK HTRF

>  <COMPOUND>
CCc1c(F)ccc2cc(O)cc(N3CCc4c(nc(OC[C@@]56CCCN5C[C@H](F)C6)nc4N4CCCc5nc[nH]c5C4)C3)c12

>  <STUDY_TARGET>
MKN1 cells

>  <IC50, nM>
2600

$$$$
>  <COMPOUND>
CCc1c(F)ccc2cc(O)cc(N3CCc4c(nc(OC[C@@]56CCCN5C[C@H](F)C6)nc4N4CCCn5nc(C(=O)N(C)C6CCC6)cc5C4)C3)c12

>  <STUDY_TARGET>
MKN1 cells

>  <IC50, nM>
14.4

$$$$
>  <COMPOUND>
CCc1c(F)ccc2cc(O)cc(N3CCc4c(nc(OCC56CCCN5C/C(=C\F)C6)nc4N4CCCn5nc(C(=O)N(C)C)cc5C4)C3)c12 (stereo not drawn)

>  <STUDY_TARGET>
MKN1 cells

>  <IC50, nM>
0.3

$$$$
